- Target Desc: HLA-DR DRB3*0101 (human)
- Assay Remarks: radioligand inhibition, purified HLA-DR
- Run Conditions: remark: other sources report otherwise
Result Type: pIC50
To interpret pIC50, take it as minus log10 of a concentration measured in moles per litre.

Supply recorded pIC50 for CHLFYNEQQEARGVH [Peptide 9019.0023] here.
4.72
